Entry source: ChEMBL document CHEMBL1201862

- Tested on: HCC 2998
- protocol text: NCI tumour cell line growth inhibition, 48 h
The source made the active and inactive calls. Cut-off read from the data, not from the text of the source: active = GI50 up to about 1.1 µM and inactive = higher.
Tick one outcome: Yes = active, No = inactive

# count of solved cases: 5
C/C(=N\NC(=O)c1ccncc1)c1cccc(F)c1 = No
O=C1C(N2C(=O)c3ccccc3C2=O)CN1C(COCc1ccccc1)c1ccc(OCc2ccccc2)cc1 (stereo not given) = No
C#CC1(O)C(COP(=O)(O)OCC2OC(n3ccc(NCCCCCCCCCCCCCCCCCC)nc3=O)C(O)C2O)OC(n2ccc(N)nc2=O)C1O (stereo not given) = Yes
COc1cc(/C=C2\C(=O)N(c3ccccc3)C(c3ccccc3)S2(=O)=O)cc(OC)c1OC (stereo not given) = No
C[Si](C)(c1ccccc1)C1CC(=O)CC(=O)C1 = No

Asked: Returns: the outcome recorded for O=C(COC(=O)c1cccc2c(=O)c3ccccc3[nH]c12)Nc1ccc(Cl)cc1 in this assay.
Given back: No

Asked: Could you please tell me the result logged for Cc1nn2c(=O)c([N+](=O)[O-])c(/C=C/c3ccc(F)cc3)nc2s1 in this assay?
Given back: No

----------
- System: HOP-92
- protocol text: NCI tumour cell line growth inhibition, 48 h
Activity calls are given as the source filed them. No stated cut-off is given here; in the data, active = GI50 up to about 1.1 µM and inactive = higher.
Kindly state GI50 for each of the entries shown.

CCOP(=O)(O)CC1OC(CO)C(O)C1O (stereo unspecified) = > 100 µM (inactive)
CCC1=[N+](CC)CCN1CC = > 100 µM (inactive)
C=CCc1cc(-c2cc(CC=C)c(O)c(CNC)c2)cc(CNC)c1O = 11.1 µM (inactive)

Parameter requested: GI50. Apply to each item below.
1. c1ccc2c(CC3NCCN3)cccc2c1
2. CC(C)(C)SC1=CCC[C@@H](P(=O)(c2ccccc2)c2ccccc2)[C@@H]2CCC[C@@H]12
3. Clc1cc(Cl)nc(Nc2ccc3c(c2)CCC3)n1
4. Cc1cccc(N2C(=O)C(=O)C(c3nc4ccccc4s3)/C(=N/NC(=S)NN)C2=O)c1C (stereo unspecified)
5. CCOC(=O)C(=CNc1ccc(N(C2=NCC(C)S2)c2ccc(F)c(Cl)c2)cc1)C(=O)OCC (stereo unspecified)

Given back:
1: 46 µM (inactive); 2: 13.7 µM (inactive); 3: 32.8 µM (inactive); 4: > 100 µM (inactive); 5: 18.1 µM (inactive)

----------
- Tested on: CAKI-1
- protocol text: NCI tumour cell line growth inhibition, 48 h
Calls of active or inactive are those of the source. Cut-off read from the data, not from the text of the source: active = GI50 up to about 1.1 µM and inactive = higher.
measured property: GI50

Please give GI50, item by item, for the list that follows.
1. COP(=O)(OC)C(O)CC(C)C (configuration not stated)
2. O=C1CSC(/C(=C/c2ccccc2)c2nc3ccccc3[nH]2)=N1
3. N#CC(C#N)=C1SCC(=O)CS1
4. CC(C)OC(=O)c1ccc(NCc2cc(O)ccc2O)cc1
5. CN(C)CCn1c(=O)oc2cc(C(=O)CN3CCOCC3)ccc21

Given back:
["> 100 µM (inactive)", "> 100 µM (inactive)", "> 100 µM (inactive)", "1.28 µM (inactive)", "> 100 µM (inactive)"]

----------
Please provide measured GI50 for the entries that follow.
- Tested on: SK-MEL-28
- protocol text: NCI tumour cell line growth inhibition, 48 h
Activity calls are given as the source filed them. Rule as the data show it: active = GI50 up to about 1.1 µM and inactive = higher.

# count of solved cases: 7
CCCc1nnc2sc(COc3ccc(OCc4nn5c(CCC)nnc5s4)c(Cl)c3)nn12 = 26.1 µM (inactive)
NC(Cc1ccccc1)C(=O)NC(Cc1ccccc1)NC(=O)C(Cc1c[nH]c2ccccc12)C(=O)O (stereo not drawn) = > 100 µM (inactive)
c1ccc2c(c1)nc1n2CSCC1 = > 100 µM (inactive)
O=C(O)/C(Cl)=C(\Cl)Nc1cccc(C(F)(F)F)c1 = > 100 µM (inactive)
CC1OC2OC3C(OCC(O)C3O)OC(=O)[C@]34CCC(C)(C)CC3C3=CCC5[C@@]6(C)C[C@H](O)[C@H](OC7OC(CO)C(O)C(O)C7OC7OC(COC(=O)CC(C)(O)CC(=O)OC1C(OC1OC(CO)C(O)C(O)C1O)C2O)C(O)C(O)C7O)[C@@](C)(CO)C6CC[C@@]5(C)[C@]3(C)CC4 (stereo partly drawn) = 1.3 µM (inactive)
Cc1nn2c(=O)c([N+](=O)[O-])c(/C=C/c3ccc(F)cc3)nc2s1 = 12.9 µM (inactive)
O=C1OC(C2Cc3cc4c(cc3C2=O)CCC4)c2ccccc21 (stereo not drawn) = 38.5 µM (inactive)

Shift focus to the following entry.
GET /value?item= CCOC(=O)C(Cc1c2ccccc2cc2ccccc12)(NC(C)=O)C(=O)OCC &field=GI50 returns > 100 µM (inactive)

----------
Hi there, I'd appreciate the recorded GI50 for every entry that follows.
- Tested on: HOP-62
- protocol text: NCI tumour cell line growth inhibition, 48 h
Active and inactive are the calls of the source. No stated cut-off is given here; in the data, active = GI50 up to about 1.1 µM and inactive = higher.

O=c1c2cc(Br)ccc2nc(-c2ccccc2Cl)n1NCC1(O)OCC(O)C(O)C1O (centres undefined) = > 100 µM (inactive)

Give GI50 for all compounds that follow.
1. CCCCCCCCCCCCNC(=O)NCC(OCC)OCC
2. c1ccc2c(c1)CCN2CCN1CCc2ccccc21
3. O=C(N/N=C/c1ccccc1)c1c(-c2cccnc2)cnc2ccccc12
4. CN(C)CCNc1ccc(NCC[N+](C)(C)Cc2ccc([N+](=O)[O-])cc2)c2c1C(=O)c1c(O)ccc(O)c1C2=O

Given back:
["> 10 µM (inactive)", "> 10 µM (inactive)", "87.7 µM (inactive)", "79.3 µM (inactive)"]

----------
- System: A498
- protocol text: NCI tumour cell line growth inhibition, 48 h
Calls of active or inactive are those of the source. Cut-off read from the data, not from the text of the source: active = GI50 up to about 1.1 µM and inactive = higher.
Assign a class; possible classes are active, inactive

Observe how each entry below is paired with its result.
Cc1ccc2c(c1)C1(C)OC(C=CC1=O)O2 (centres undefined) = inactive
Cc1nn2c(=O)c([N+](=O)[O-])c(/C=C/c3ccc(F)cc3)nc2s1 = inactive
Cc1n(CC(=O)c2ccc([N+](=O)[O-])cc2)c2c([n+]1CC(C)C)C(=O)c1ccccc1C2=O = active
COc1ccc2c(c1)c1c3c(ccc4ncn2c43)N(CCO)CCN=1 = active
O=C1/C(=C/C=C/c2ccccc2)N=C(c2ccccc2)N1c1ccc(S(=O)(=O)Nc2nccs2)cc1 = inactive
c1ccc(-c2cnc(-c3ccc(-c4ncc(-c5ccccc5)o4)cc3)o2)cc1 = inactive
COc1cc2ccn3c4cc(OC)c(OC)cc4cc3c2cc1OC = inactive
CC1(C)CSCC(C)(C)C(=N/N)/C1=N\N = inactive

Next compound, please.
Asked: Recorded call for COc1nc2c(c(=O)[nH]1)N=C(c1ccc([N+](=O)[O-])cc1)CC(c1ccccc1)N2 (centres undefined) ?
Given back: inactive

----------
- Tested on: NCI/ADR-RES
- protocol text: NCI tumour cell line growth inhibition, 48 h
Active and inactive are the calls of the source. Cut-off read from the data, not from the text of the source: active = GI50 up to about 1.1 µM and inactive = higher.
Your reply should match one of these outcome classes. YES for active, NO for inactive

CCOC(=O)c1nc2cc(F)c(N3CCOCC3)cc2[nH]c1=O = NO
C[C@@H]1C[C@H](O)[C@]2(O)O[C@@H]3C[C@@]4(C=O)[C@@H](CC=C5[C@@H]4CC[C@]4(C)[C@@H](C6=CC(=O)OC6)CC[C@]54O)C[C@H]3O[C@@H]2O1 = YES

Asked: Record lookup: outcome of this test for O=[N+]([O-])c1ccc2c(c1)nc(Cc1ccc(Cl)cc1)n2C[C@@H]1CCCN2CCCCC12 (stereo partly drawn) ?
Given back: NO

Asked: Which outcome was assigned to COc1ccc2c(c1)Cc1cc(/N=[N+](\[O-])c3ccc4c(c3)Cc3cc(OC)ccc3-4)ccc1-2 in this test?
Given back: NO

Asked: What did this assay record as the result for O=C(O)Cc1ccc(N2N=C(c3ccccc3)CC2=O)cc1 ?
Given back: NO

Asked: Please indicate how the test categorized O=C(N/N=C1/C(=O)c2c3ccccc3cc3cccc1c23)c1cccc(Cl)c1 .
Given back: NO

Asked: Could you kindly confirm the outcome this assay logged for CC(C)OC1=C(CC2(C)OCCO2)C(=O)C12OCCO2 ?
Given back: NO

Asked: Look up the recorded call for COc1ccccc1/C=C1\S/C(=N/Nc2nc(C)c(C(C)=O)s2)NC1=O in this test.
Given back: NO

----------
- System: HCT-15
Numbered stars: 1 amine (or outer) side, 2 acyl side, 3 side chain; on linkers, the order of the positions; unused ones are H or OH. Square brackets hold non-standard residues; d marks the D form. Peptide text beside a SMILES is read from it. * marks the point of attachment. X30 = CC(=O)N(C)SCC(N[*:1])C(=O)[*:2]; Cbz = O=C(OCc1ccccc1)*; Bn = c1ccc(C*)cc1
One threshold, 20 µM, splits the recorded GI50 values: lower ones are Criterion met, equal or higher ones are Criterion not met.

Cc1cc2c(C(C)C)c(O)c(O)c(/C=N\CCO)c2c(O)c1-c1c(C)cc2c(C(C)C)c(O)c(O)c(/C=N/CCO)c2c1O = Criterion met

Asked: Dear colleague, could you confirm whether GI50 of O=C1OC(C2Cc3cc4c(cc3C2=O)CCC4)c2ccccc21 (stereo not drawn) falls below 20 µM? Thanks.
Given back: Criterion not met

Asked: hey, is GI50 for Cc1ccc2c(n1)NC(=O)C(Cc1ccccc1)(N=[N+]=[N-])C2=O (stereo not drawn) lower than 20 µM or not?
Given back: Criterion not met

Asked: I wonder whether COC(=O)/C=C\C(C#N)(C#N)/N=C/c1ccsc1 has GI50 below 20 µM. Can you tell?
Given back: Criterion met

Asked: I'd appreciate it if you could check whether CC(C)OC1=C(CC2(C)OCCO2)C(=O)C12OCCO2 has GI50 smaller than 20 µM.
Given back: Criterion not met

Asked: Hello, is GI50 of the following compound strictly smaller than 20 µM? COc1ccc(/C=N/NC(=S)Nc2cc(C)ccc2OC)cc1
Given back: Criterion met

Asked: Criterion: GI50 strictly below 20 µM. Is it met by O=C1c2ccccc2CC12CCC1(CC2)OCCO1 ?
Given back: Criterion not met

Asked: Determine whether this compound shows GI50 lower than 20 µM (ties excluded): C[n+]1c(-c2ccc(/C=N/NC(=S)N/N=C/c3ccc(-c4cn5ccsc5[n+]4C)cc3)cc2)cn2ccsc21
Given back: Criterion not met

Asked: is_below(GI50, 20 µM) for CN(C)c1ccc(C2SCC(=O)N2c2ccc(Oc3ccc(Cl)cc3)c(Cl)c2)cc1 (stereo not drawn) ?
Given back: Criterion not met

Asked: Dear colleague, could you confirm whether GI50 of C[C@@H]1OC(=O)N2CCCC(=C3SCCCS3)C12 (stereo partly drawn) falls below 20 µM? Thanks.
Given back: Criterion not met

Asked: hey, is GI50 for Cc1cc2c(cc1Cl)SC(NNc1cnc3ccccc3n1)=NS2(=O)=O lower than 20 µM or not?
Given back: Criterion not met

Asked: Just wondering, is GI50 of Cc1ccc2c(=O)c(C(=O)N(CCO)CCO)c[nH]c2n1 below 20 µM?
Given back: Criterion not met

Asked: Please determine if NC(Cc1ccccc1)C(=O)NC(Cc1ccccc1)NC(=O)C(Cc1c[nH]c2ccccc12)C(=O)O (stereo not drawn) is below 20 µM in terms of GI50.
Given back: Criterion not met

Asked: In the record for CC(=O)N(C)SCC(NC(=O)C(Cc1ccccc1)NC(=O)OCc1ccccc1)C(=O)NC(Cc1ccccc1)C(=O)NC(Cc1c[nH]c2ccccc12)C(=O)NC(CCCCNC(=O)OCc1ccccc1)C(=O)NC(C(=O)NC(CSN(C)C(C)=O)C(=O)NC(C(N)=O)C(C)OCc1ccccc1)C(C)OCc1ccccc1 (stereo not drawn) (Cbz-F[X30]FWK(Cbz)T(Bn)[X30]T(Bn)-NH2; configuration not given here) , is GI50 less than 20 µM?
Given back: Criterion not met

Asked: Input COc1ccc(/[N+]([O-])=C/c2ccc(OC(=S)S)c(OC)c2)cc1 ; condition: GI50 strictly below 20 µM. Does it hold?
Given back: Criterion not met

Asked: GI50 under 20 µM? Item: Cc1c(C)c(S(=O)(=O)N(CCCN)OCCCN)c(C)c2c1OC(C)(C)C2
Given back: Criterion not met

Asked: Dear reviewer, please state whether C[N+](C)(C)CC(=O)N/N=C(/C=C/c1ccccc1)CC1OC(=O)c2ccccc21 (stereo not drawn) has GI50 strictly beneath 20 µM.
Given back: Criterion not met
